Tested on: 407 cancer cell lines
Assay text: Cell viability of cancer cell lines (IC50), CellTiter-Glo Viability Assay, 96 h
Type: cell-based
Assay context: SW579 cells, 96 h; read-out: Absolute IC50
pIC50: −log10 of the molar value.

[
  {
    "Molecule": "N.N.[Cl][Pt][Cl] [Cisplatin, reference compound]",
    "pIC50": 5.85
  }
]

* * *

Assay text: Pharmacokinetics in CD-1 mice, single oral dose compared to single intravenous dose
Assay type: in vivo
Assay context: mouse, plasma, 2.5 mg/kg, Oral, 2.5 mpk

[
  {
    "Chemical structure": "Cc1nn(-c2nc(-c3ccc(C(F)(F)F)cc3)c(SC(C)C)s2)c(C(=O)O)c1-c1cccc(F)c1",
    "AUC(0-inf) / µg·h/mL": 42.9
  }
]

* * *

System: 407 cancer cell lines
Assay text: Cell viability of cancer cell lines (IC50), CellTiter-Glo Viability Assay, 96 h
Format: cell-based
Assay context: Homo sapiens, SCC-15, 96 h, SCC-15 cells, 96 h; read-out: Absolute IC50
Test readout: IC50

[
  {
    "Chemical structure": "Cc1nn(-c2nc(-c3ccc(C(F)(F)F)cc3)c(SC(C)C)s2)c(C(=O)O)c1-c1cccc(F)c1",
    "Endpoint result": "> 30 µM"
  }
]

* * *

System: 407 cancer cell lines
Assay text: Cell viability of cancer cell lines (IC50), CellTiter-Glo Viability Assay, 96 h
Assay type: cell-based
Assay context: NCI-H209 cells, 96 h; read-out: Absolute IC50

[
  {
    "Molecule": "N.N.[Cl][Pt][Cl] [Cisplatin, reference compound]",
    "IC50": "440 nM"
  }
]

* * *

Test system: 406 cancer cell lines, 73 blood tumor cell lines and 333 solid tumor cell lines
Assay text: OmniScreen drug efficacy on cancer cell lines, fitted area under curve (AUC) of dose-response
Assay type: cell-based
Assay context: JAR, Placenta
pIC50: −log10 of the molar value.

[
  {
    "Chemical structure": "Cc1nn(-c2nc(-c3ccc(C(F)(F)F)cc3)c(SC(C)C)s2)c(C(=O)O)c1-c1cccc(F)c1",
    "pIC50": 6.17
  }
]

* * *

System: 407 cancer cell lines
Assay text: Cell viability of cancer cell lines (IC50), CellTiter-Glo Viability Assay, 96 h
Assay type: cell-based
Assay context: NCI-H1651 cells, 96 h; read-out: Absolute IC50

[
  {
    "Compound": "N.N.[Cl][Pt][Cl] [Cisplatin, reference compound]",
    "System under test": "407 cancer cell lines",
    "Reading unit": "nM",
    "IC50": 620
  }
]

* * *

Test system: 407 cancer cell lines
Assay text: Cell viability of cancer cell lines (IC50), CellTiter-Glo Viability Assay, 96 h
Format: cell-based
Assay context: SNU-620 cells, 96 h; read-out: Absolute IC50
Test readout: IC50

[
  {
    "Molecule": "N.N.[Cl][Pt][Cl] [Cisplatin, reference compound]",
    "Endpoint result": "7.03 µM"
  }
]

* * *

Tested on: 407 cancer cell lines
Assay text: Cell viability of cancer cell lines (IC50), CellTiter-Glo Viability Assay, 96 h
Assay type: cell-based
Assay context: A-375, 96 h; read-out: Absolute IC50
pIC50: −log10 of the molar value.

[
  {
    "Compound": "N.N.[Cl][Pt][Cl] [Cisplatin, reference compound]",
    "System under test": "407 cancer cell lines",
    "pIC50": 5.98
  }
]

* * *

System: 407 cancer cell lines
Assay text: Cell viability of cancer cell lines (IC50), CellTiter-Glo Viability Assay, 96 h
Assay type: cell-based
Assay context: NCI-H1703 cells, 96 h; read-out: Absolute IC50
pIC50: −log10 of the molar value.

[
  {
    "Compound": "N.N.[Cl][Pt][Cl] [Cisplatin, reference compound]",
    "pIC50": 5.21
  }
]

* * *

Tested on: 407 cancer cell lines
Assay text: Cell viability of cancer cell lines (IC50), CellTiter-Glo Viability Assay, 96 h
Assay type: cell-based
Assay context: Homo sapiens, NCI-H460, 96 h, NCI-H460 cells, 96 h; read-out: Absolute IC50
Test readout: IC50

[
  {
    "Chemical structure": "Cc1nn(-c2nc(-c3ccc(C(F)(F)F)cc3)c(SC(C)C)s2)c(C(=O)O)c1-c1cccc(F)c1",
    "Endpoint result": "> 30 µM"
  }
]

* * *

Test system: 407 cancer cell lines
Assay text: Cell viability of cancer cell lines (IC50), CellTiter-Glo Viability Assay, 96 h
Type: cell-based
Assay context: Homo sapiens, CAKI-2, Caki-2; read-out: Absolute IC50

[
  {
    "Compound": "Cc1nn(-c2nc(-c3ccc(C(F)(F)F)cc3)c(SC(C)C)s2)c(C(=O)O)c1-c1cccc(F)c1 [Compound A197]",
    "IC50": "> 30 µM"
  }
]

* * *

Test system: 407 cancer cell lines
Assay text: Cell viability of cancer cell lines (IC50), CellTiter-Glo Viability Assay, 96 h
Type: cell-based
Assay context: Homo sapiens, MHCC97H, MHCC97-H; read-out: Absolute IC50
pIC50: −log10 of the molar value.

[
  {
    "Chemical structure": "Cc1nn(-c2nc(-c3ccc(C(F)(F)F)cc3)c(SC(C)C)s2)c(C(=O)O)c1-c1cccc(F)c1",
    "System under test": "407 cancer cell lines",
    "pIC50": 5.49
  }
]

* * *

Test system: 407 cancer cell lines
Assay text: Cell viability of cancer cell lines (IC50), CellTiter-Glo Viability Assay, 96 h
Format: cell-based
Assay context: Daoy cells, 96 h; read-out: Absolute IC50
pIC50: −log10 of the molar value.
Test readout: pIC50

[
  {
    "Compound": "N.N.[Cl][Pt][Cl] [Cisplatin, reference compound]",
    "Endpoint result": 6.41
  }
]

* * *

System: MDA-MB-231
Assay text: Anti-proliferative activity, CellTiter-Glo, 72 hours: MDA-MB-231
Type: cell-based, human
Assay context: MDA-MB-231 (breast cancer), Cell-Titre-Glo
pIC50: −log10 of the molar value.
Test readout: pIC50

[
  {
    "Compound": "O=C(O)C(Cc1ccccc1[N+](=O)[O-])=NNc1nc(-c2ccc(Cl)c(Cl)c2)cs1 (mixture of isomers) [Compound 4EGI-1, 4EGI-1, reference compound]",
    "Test readout": "pIC50",
    "Endpoint result": 5.24
  }
]

* * *

Tested on: 407 cancer cell lines
Assay text: Cell viability of cancer cell lines (IC50), CellTiter-Glo Viability Assay, 96 h
Assay type: cell-based
Assay context: Homo sapiens, HEC-1-A, 96 h, HEC-1-A cells, 96 h; read-out: Absolute IC50
pIC50: −log10 of the molar value.
Test readout: pIC50

[
  {
    "Molecule": "Cc1nn(-c2nc(-c3ccc(C(F)(F)F)cc3)c(SC(C)C)s2)c(C(=O)O)c1-c1cccc(F)c1 [Compound A197]",
    "Endpoint result": "< 4.52"
  }
]

* * *

System: 407 cancer cell lines
Assay text: Cell viability of cancer cell lines (IC50), CellTiter-Glo Viability Assay, 96 h
Type: cell-based
Assay context: HCCLM3 cells, 96 h; read-out: Absolute IC50
pIC50: −log10 of the molar value.

[
  {
    "Molecule": "N.N.[Cl][Pt][Cl] [Cisplatin, reference compound]",
    "pIC50": 4.97
  }
]

* * *

Test system: 407 cancer cell lines
Assay text: Cell viability of cancer cell lines (IC50), CellTiter-Glo Viability Assay, 96 h
Type: cell-based
Assay context: U251 cells, 96 h; read-out: Absolute IC50
pIC50: −log10 of the molar value.
Test readout: pIC50

[
  {
    "Compound": "N.N.[Cl][Pt][Cl] [Cisplatin, reference compound]",
    "Test readout": "pIC50",
    "Endpoint result": 5.45
  }
]

* * *

Test system: 407 cancer cell lines
Assay text: Cell viability of cancer cell lines (IC50), CellTiter-Glo Viability Assay, 96 h
Format: cell-based
Assay context: A-673 cells, 96 h; read-out: Absolute IC50
pIC50: −log10 of the molar value.

[
  {
    "Compound": "N.N.[Cl][Pt][Cl] [Cisplatin, reference compound]",
    "pIC50": 6.59
  }
]

* * *

Tested on: 407 cancer cell lines
Assay text: Cell viability of cancer cell lines (IC50), CellTiter-Glo Viability Assay, 96 h
Type: cell-based
Assay context: Homo sapiens, 786-0, 96 h, 786-O cells, 96 h; read-out: Absolute IC50
Procedure: Viability was determined by using the 50% inhibitory concentration (IC50) as determined with the CellTiter-Glo® Viability Assay (Promega). Experiments were initiated by first thawing and equilibrating the CellTiter-Glo® Buffer to room temperature. The lyophilized CellTiter-Glo® Substrate was also equilibrated to room temperature. […] Cells were harvested during the logarithmic growth period, counted, and the cell concentration adjusted to 4.44×10^4 cells/mL using culture medium. […]

[
  {
    "Chemical structure": "Cc1nn(-c2nc(-c3ccc(C(F)(F)F)cc3)c(SC(C)C)s2)c(C(=O)O)c1-c1cccc(F)c1",
    "IC50": "1.15 µM"
  }
]
